Consider the following molecules and their measured TGI readings.
Test system: NCI-H460 lung
Assay: NCI tumour cell line growth inhibition, 48 h

# Molecule, TGI
measured = [
    ("CNCCC=C1c2ccccc2CCc2ccccc21", "28.5 µM"),
    ("O=c1ccn(C2OC(CN(O)CCC3C(CO)OC(n4ccc(=O)[nH]c4=O)C3O)C(O)C2O)c(=O)[nH]1 (stereo unspecified)", "> 100 µM"),
    ("O=C1C2Nc3ccccc3SC2C(=O)N1c1ccccc1C(F)(F)F (stereo unspecified)", "> 100 µM"),
    ("Cn1cnc([N+](=O)[O-])c1Sc1ncn[nH]1", "> 100 µM"),
    ("COc1ccc(Nc2c3ccccc3nc3[nH]c4ccccc4c23)cc1", "> 50 µM"),
    ("CN1C(=O)C2C=C3CCCCC3=CC2N(C)C1=O (stereo unspecified)", "> 100 µM"),
    ("CSc1cccc(NC(=O)OC2CCCCCCCCCCC2)c1", "35.2 µM"),
    ("CC(C)C(NC(=O)C(Cc1ccccc1)NC(=O)[C@H]1CCC[C@H]1NC(=O)C(N)Cc1ccc(O)cc1)C(N)=O (stereo partly specified)", "> 100 µM"),
    ("CC1=C(C(=O)OC(C)C)C(c2ccccc2C(F)(F)F)C(C(=O)OC(CO[N+](=O)[O-])CO[N+](=O)[O-])=C(C)N1 (stereo unspecified)", "42.6 µM"),
    ("NCCSCCc1ccccc1", "> 100 µM"),
    ("CN(C)C(=S)/N=c1\\ss/c(=N\\S(=O)(=O)c2ccccc2)n1N(C)C", "> 100 µM"),
]

* * *

System: COLO 205 colon
Experiment: NCI tumour cell line growth inhibition, 48 h

# Compound, TGI
measured = [
    ("Cc1ccccc1-n1c(C)nc(-c2ccccc2)cc1=O", "> 100 µM"),
    ("COC(=O)C1=C(C)N2CCOC2CC1c1ccccc1 (stereo unspecified)", "> 100 µM"),
    ("Cc1nc2c(=O)n3c4c(cccc4c2o1)CCC3", "> 100 µM"),
    ("O=C(Nc1ccc(Cl)c(Cl)c1)OCCN1c2ccccc2Sc2ccccc21", "> 10 µM"),
    ("O=C1NC(=O)C2C1N(Cc1ccccc1)C(=O)N2Cc1ccccc1 (stereo unspecified)", "> 100 µM"),
    ("Cn1c2ccccc2c(=O)c2[nH]c3ccccc3c21", "> 100 µM"),
]

* * *

System: UO-31 renal
Assay: NCI tumour cell line growth inhibition, 48 h
Readout Type: TGI

# Compound, Assay Result
rows = [
    ("COC(=O)c1c(-c2ccccc2)c2sc3ccccc3n2c1N", "> 100 µM"),
    ("COc1ccc(CCNCCCC2c3ccccc3-c3ccccc32)cc1OC", "24.4 µM"),
    ("Cc1ccccc1-n1c(C)nc(-c2ccccc2)cc1=O", "> 100 µM"),
    ("COc1ccc(C(=O)Nc2ccc3oc(-c4ccccc4)nc3c2)cc1", "0.838 µM"),
    ("O=C(CC1C(=O)Nc2ccccc2S1=O)Nc1ccc(Cl)cc1 (stereo not given)", "> 100 µM"),
]

* * *

Test system: UACC-62 melanoma
Experiment: NCI tumour cell line growth inhibition, 48 h
Readout Type: TGI

# Molecule, Assay Result
records = [
    ("CCOC(=O)c1c(C)c(C)n2c1NC(=O)C2", "> 100 µM"),
    ("CC1=C(/C=C/C(C)=C/C=C/C(C)=C/CO)C(C)(C)CCC1", "45.9 µM"),
    ("Cc1c(Sc2ccccc2)[n+](=O)c2cc(Cl)c(Cl)cc2n1[O-]", "> 100 µM"),
    ("Nc1nc(N)c2nc(CNc3ccc(C(=O)NC(CCCCNC(=O)c4ccccc4C(=O)O)C(=O)O)cc3)cnc2n1 (stereo not drawn)", "> 100 µM"),
    ("CN1C(=O)C2C=C3CCCCC3=CC2N(C)C1=O (stereo not drawn)", "> 100 µM"),
    ("C[N+](C)=c1nc(N2CCc3ccccc3C2)ss1", "> 100 µM"),
    ("COc1ccc2c(c1OC)C(=O)c1cnccc1C2=O", "> 100 µM"),
    ("C=C1[C@@H]([C@@]2(C)C=CC(=O)C(C)(C)[C@@H]2CC(=O)OC)CC[C@@]2(C)C(c3ccoc3)OC(=O)[C@H]3O[C@]132 (stereo partly drawn)", "> 100 µM"),
    ("C=CCn1c(-c2ccc(-c3cs/c(=N\\N=O)n3CC=C)cc2)cs/c1=N\\N=O", "> 100 µM"),
    ("COc1ccc(CCNCCCC2c3ccccc3-c3ccccc32)cc1OC", "30.3 µM"),
    ("CNCCC=C1c2ccccc2CCc2ccccc21", "28.3 µM"),
    ("N#CC1=C(Cl)NC(Cl)=C(C#N)C1c1c(Cl)cccc1Cl", "73.4 µM"),
    ("CC(=O)ON(C(C)=O)c1ccc(-c2nc3ccccc3s2)cc1C", "> 100 µM"),
    ("Cn1c(=O)c(Oc2ccc(F)cc2F)cc2cnc(NCCS(C)(=O)=O)nc21", "> 25 µM"),
    ("CCOC(=O)C1=C(Nc2ccc(Cl)c(Cl)c2)OC/C1=N\\NS(=O)(=O)c1ccc(C)cc1", "> 100 µM"),
    ("CCC(=O)C(C(C)/C=C/CCSc1ccccc1)C(O)CCCCCC(=O)OC (stereo not drawn)", "> 100 µM"),
    ("Cn1cnc([N+](=O)[O-])c1Sc1ncn[nH]1", "> 100 µM"),
    ("CC#CC(O)(C(=O)OC1CC2CCC(C1)N2C)C1CCCC1 (stereo not drawn)", "> 100 µM"),
    ("CC(C)(C)S(=O)OC12CC3CC(CC(C3)C1)C2 (stereo not drawn)", "> 100 µM"),
    ("Cc1nc(Nc2nc3ccccc3o2)nc(-c2cccc([N+](=O)[O-])c2)c1C(=O)Nc1ccc(F)c(Cl)c1", "> 100 µM"),
    ("O=c1[nH]n(Cc2ccccc2Cl)c2ccccc12", "> 100 µM"),
    ("CC(=O)Oc1ccc(C(c2ccc(OC(C)=O)cc2)c2ccccn2)cc1", "> 100 µM"),
    ("Nc1ccc([C@H]2C(=O)N[C@H]3CCC[C@H]32)cc1", "> 100 µM"),
]

* * *

Test system: KM12 colon
Test: NCI tumour cell line growth inhibition, 48 h
Readout Type: TGI

# Compound, Assay Result
measured = [
    ("COc1ccc2nc(NC(=O)c3cccnc3Nc3cc(OC)c(OC)c(OC)c3)sc2c1", "19 µM"),
    ("COc1cc2c(cc1OC)C(=O)N(NC1=NCCN1)C2=O", "> 100 µM"),
    ("C[C@H]1C(=O)CC[C@]2(C)CCC(C(C)(C)O)CC12O (some centres not stated)", "> 100 µM"),
    ("O=C1OC(OCC#CCOC2OC(=O)C(Cl)=C2Cl)C(Cl)=C1Cl (configuration not stated)", "39.3 µM"),
    ("COc1cc2oc(=O)ccc2cc1CC=C(C)C", "> 100 µM"),
    ("COc1ccccc1CNC(=O)[C@H](Cc1ccc(O)cn1)NC(C)=O", "> 100 µM"),
    ("N#CC1=C(Cl)NC(Cl)=C(C#N)C1c1c(Cl)cccc1Cl", "48.6 µM"),
    ("COC(=O)c1ccc(NCc2cc(O)ccc2O)cc1", "29.6 µM"),
    ("CCc1nc(N)nc(N)c1-c1ccc(Cl)c(N=CN(C)C)c1", "> 100 µM"),
    ("Cn1c(=O)c(Oc2ccc(F)cc2F)cc2cnc(NCCS(C)(=O)=O)nc21", "> 25 µM"),
    ("CC(=O)c1sc(=N)n(-c2c(C)cccc2C)c1C", "> 100 µM"),
    ("CCC(Oc1ccc(OC)c2ccccc(=O)c12)C(=O)O (configuration not stated)", "> 100 µM"),
    ("NCc1cc(O)c(O)c(O)c1", "> 100 µM"),
    ("CC(C)c1cc(OCC(O)CO)cc(C(C)C)c1 (configuration not stated)", "> 100 µM"),
    ("N#Cc1c(N2CCOCC2)[nH]c(=O)c(C(c2c(Cl)cccc2Cl)c2c(O)c(C#N)c(N3CCOCC3)[nH]c2=O)c1O", "32.7 µM"),
    ("Clc1nc(Cl)c2ncn(Cc3ccc(Cn4cnc5c(Cl)nc(Cl)nc54)cc3)c2n1", "31.2 µM"),
    ("Cc1cc(-c2nc3cccc(F)c3s2)ccc1N", "> 100 µM"),
    ("CN(C)CCN(C(=Nc1ccccc1)N1CCCC1)c1ccccc1", "> 100 µM"),
    ("N#Cc1sc2c(c1O)c(=O)n(-c1ccccc1)c(=S)n2-c1ccccc1", "> 100 µM"),
    ("CC(=O)Oc1ccc(C(c2ccc(OC(C)=O)cc2)c2ccccn2)cc1", "> 100 µM"),
    ("CC12Oc3ccc4ccccc4c3CC1Cc1c(ccc3ccccc13)O2 (configuration not stated)", "> 100 µM"),
    ("COC(=O)C1=C(C)N2CCOC2CC1c1ccccc1 (configuration not stated)", "> 100 µM"),
    ("Cc1cccc(Nc2cnc(N)nc2N)c1", "> 100 µM"),
    ("CC(=O)C1=CCC2c3[nH]c4ccccc4c3CCN2C1 (configuration not stated)", "> 100 µM"),
    ("Cc1c(C)c(S(=O)(=O)N(CCCCCON)OCCCN)c(C)c2c1OC(C)(C)CC2", "27.3 µM"),
    ("C=C1[C@@H]([C@@]2(C)C=CC(=O)C(C)(C)[C@@H]2CC(=O)OC)CC[C@@]2(C)C(c3ccoc3)OC(=O)[C@H]3O[C@]132 (some centres not stated)", "> 100 µM"),
    ("CN(/N=N/c1nc(OCc2ccccc2)c2[nH]cnc2n1)C(=O)Oc1ccc([N+](=O)[O-])cc1", "18.7 µM"),
    ("Cc1cccc(C(C)(C)C)c1NC(=O)CC1Sc2ccccc2NC1=O (configuration not stated)", "> 100 µM"),
    ("O=[N+]([O-])c1ccc(S(=O)(=O)Cc2ccccc2)c2nonc12", "38.7 µM"),
    ("CC1=C(/C=C/C(C)=C/C=C/C(C)=C/CO)C(C)(C)CCC1", "> 100 µM"),
    ("Cc1ccc(-c2nc(N3CCCNCC3)c3oc(-c4ccc(C)cc4)nc3n2)cc1", "3.2 µM"),
    ("COc1cc(C(=O)Nc2cc(C(N)=O)cc(OC)c2OC)cc(NC(=O)/C=C/c2ccccc2)c1OC", "> 100 µM"),
    ("CC(Br)C(=O)Nc1ccc(C(=O)O)c(O)c1 (configuration not stated)", "> 100 µM"),
    ("CNCCC=C1c2ccccc2CCc2ccccc21", "29.6 µM"),
    ("CN1CC(=O)N(C)c2nc[nH]c2C1=O", "> 100 µM"),
    ("FC1=C2CCCCCC2SC1(F)F (configuration not stated)", "> 100 µM"),
    ("O=C(O)/C=C/C(=O)N1C/C(=C\\c2ccccc2)C(=O)/C(=C/c2ccccc2)C1", "6.07 µM"),
]
